Exercise: state measured Tm for each of the substances provided.
System: complementary RNA sequences
Type: binding
Details: pH 7
Give your result as the value with the unit written after it.

Per the record, Example 98: CTC GTA CT*T T*TC CGG TCC, T*T units derived from Compound 81B (CTCGTACTTTTCCGGTCC; T*T modified units from Compound 81B, chemistry not fully specified) has Tm of 58.8 °C

Per the record, Example 88: TTT T*TC TCT CTC TCT, T*T unit derived from Compound 81 (TTTTTCTCTCTCTCT; one T*T dimer with modified linkage from Compound 81, further chemistry not given here) has Tm of 46.8 °C

Per the record, Example 87: TTT T*TC TCT CTC TCT, T*T unit derived from Compound 81 (hydrolysed) (TTTTTCTCTCTCTCT; T*T modified dimer unit from Compound 81 (hydrolysed), chemistry not fully specified) has Tm of 45.7 °C

Per the record, Example 89: TTT T*TC TCT CTC TCT, T*T unit derived from Compound 81A (TTTTTCTCTCTCTCT; one T*T dimer with modified linkage from Compound 81A, further chemistry not given here) has Tm of 45.7 °C

Per the record, Example 96: CTC GTA CT*T T*TC CGG TCC, T*T units derived from Compound 81 (CTCGTACTTTTCCGGTCC; T*T modified units from Compound 81, chemistry not fully specified) has Tm of 58.5 °C

Per the record, Example 97: CTC GTA CT*T T*TC CGG TCC, T*T units derived from Compound 81A (CTCGTACTTTTCCGGTCC; T*T modified units from Compound 81A, chemistry not fully specified) has Tm of 57.9 °C

Per the record, Example 99: GCG T*TT *TT*T T*TT *TGC G, T*T indicating a unit derived from Compound 81 (hydrolysed) (GCGTTTTTTTTTTGCG; several T*T modified linkages from hydrolysed Compound 81, further chemistry not given here) has Tm of 39.6 °C

###

System: complementary RNA sequences
Assay type: binding
Settings: pH 7.0
Please respond with yes (1) when measured ΔTm/mod is strictly beneath -2 °C, and with no (0) in all other cases.

Incoming: Hi there! Is ΔTm/mod for Example 98: CTC GTA CT*T T*TC CGG TCC, T*T units derived from Compound 81B (CTCGTACTTTTCCGGTCC; T*T modified units from Compound 81B, chemistry not fully specified) below -2 °C, do you know?
Outgoing: no (0)

Incoming: Hi there! Is ΔTm/mod for Example 87: TTT T*TC TCT CTC TCT, T*T unit derived from Compound 81 (hydrolysed) (TTTTTCTCTCTCTCT; T*T modified dimer unit from Compound 81 (hydrolysed), chemistry not fully specified) below -2 °C, do you know?
Outgoing: yes (1)

Incoming: Hi there! Is ΔTm/mod for Example 96: CTC GTA CT*T T*TC CGG TCC, T*T units derived from Compound 81 (CTCGTACTTTTCCGGTCC; T*T modified units from Compound 81, chemistry not fully specified) below -2 °C, do you know?
Outgoing: no (0)

Incoming: Hi there! Is ΔTm/mod for Example 90: TTT T*TC TCT CTC TCT, T*T unit derived from Compound 81B (TTTTTCTCTCTCTCT; one T*T dimer with modified linkage from Compound 81B, further chemistry not given here) below -2 °C, do you know?
Outgoing: no (0)

Incoming: Hi there! Is ΔTm/mod for Example 89: TTT T*TC TCT CTC TCT, T*T unit derived from Compound 81A (TTTTTCTCTCTCTCT; one T*T dimer with modified linkage from Compound 81A, further chemistry not given here) below -2 °C, do you know?
Outgoing: yes (1)

Incoming: Hi there! Is ΔTm/mod for Example 95: CTC GTA CT*T T*TC CGG TCC, T*T units derived from Compound 81 (hydrolysed) (CTCGTACTTTTCCGGTCC; two T*T dimers with modified linkage from hydrolysed Compound 81, further chemistry not given here) below -2 °C, do you know?
Outgoing: no (0)

Incoming: Hi there! Is ΔTm/mod for Example 88: TTT T*TC TCT CTC TCT, T*T unit derived from Compound 81 (TTTTTCTCTCTCTCT; one T*T dimer with modified linkage from Compound 81, further chemistry not given here) below -2 °C, do you know?
Outgoing: yes (1)

Incoming: Hi there! Is ΔTm/mod for Example 97: CTC GTA CT*T T*TC CGG TCC, T*T units derived from Compound 81A (CTCGTACTTTTCCGGTCC; T*T modified units from Compound 81A, chemistry not fully specified) below -2 °C, do you know?
Outgoing: no (0)

Incoming: Hi there! Is ΔTm/mod for Example 99: GCG T*TT *TT*T T*TT *TGC G, T*T indicating a unit derived from Compound 81 (hydrolysed) (GCGTTTTTTTTTTGCG; several T*T modified linkages from hydrolysed Compound 81, further chemistry not given here) below -2 °C, do you know?
Outgoing: no (0)

Cited source for all entries: patent US5466677A
